Test system: HOP-62 NSCLC
Test: NCI tumour cell line growth inhibition, 48 h
ENDPOINT: TGI (µM)

1. N#C/C(=C\c1cc2ccccc2c2ccccc12)c1ccccc1    17.6
2. CC(C)(C)c1ccc(-c2nc3ccc(Cl)cc3c(=O)o2)cc1    49.7
3. CC(=O)OC1(C)C=CC(=O)C=C1    75.7
4. CC(C)=CC(=O)C[C@H]1C(=O)O[C@@H]2C[C@H]3C(C)=CC(=O)[C@@H](O)[C@]3(C)[C@H]3[C@@]4(O)OC[C@]32[C@@H]1[C@@H](C)[C@H]4O    1.8

----------
System: DMS 114 small cell lung
Experiment: NCI tumour cell line growth inhibition, 48 h
ENDPOINT: TGI

1) CC(C)c1ccc(C(c2ccc(OCC(=O)O)cc2)c2ccc(C(C)C)cc(=O)c2O)c(O)c(=O)c1    8.25 µM
2) N#C/C(=C\c1cc2ccccc2c2ccccc12)c1ccccc1    > 36.1 µM
3) Nc1ncn(C2CC(O)C(CO)O2)c(=O)n1 (centres undefined)    > 375 µM
4) COc1cc2c(c(OC)c1)C1(CC(CC#N)C2)SCCS1 (centres undefined)    > 100 µM

----------
TGI values by entry
Test system: HCT-15 colon
Test: NCI tumour cell line growth inhibition, 48 h
Where a SMILES comes first, the peptide text is derived from it. The star is where a group is joined. Cbz = O=C(OCc1ccccc1)*; Boc = CC(C)(C)OC(=O)*; tBu = CC(C)(C)*
ENDPOINT: TGI

1. C=C[C@H]1C[C@@H]2C[C@@H]3[C@H]4C/C=C\C(=O)NCCCC5NC(=O)C(=C(O)/C=C/[C@@H]4CC(=O)[C@H]3[C@@H]2[C@H]1C)C5=O (some centres undefined)    0.949 µM
2. N#CCc1ccc(C(C#N)/C(CCCC(=O)Nc2cccc([N+](=O)[O-])c2)=N/NC(N)=S)cc1 (centres undefined)    > 100 µM
3. CCCCN1CSC(=S)N(Cc2ccccc2)C1    > 100 µM
4. COc1cc(OC)c2c(=O)c(OC)c(-c3ccc4c(c3)OCO4)oc2c1    > 100 µM
5. C=C1CC[C@@H]2[C@](C)(COC(C)=O)[C@H](OC(C)=O)CC[C@@]2(C)[C@@H]1CC(Nc1ccc(S(=O)(=O)Nc2ncccn2)cc1)C1=CCOC1=O (some centres undefined)    3.33 µM
6. COc1cc(/C=C2\N=C(c3ccccc3)N(c3nc4c(OC)ccc(OC)c4s3)C2=O)ccc1O    > 100 µM
7. c1ccc2c(c1)nc1n2CNC1    > 100 µM
8. c1ccc(CSP234N5CCN2CCN3CCN4CC5)c(CSP234N5CCN2CCN3CCN4CC5)c1    > 100 µM
9. COc1ccc2c3c(coc13)C(CCC(=O)O)CC2 (centres undefined)    > 100 µM
10. COc1ccc(N2C(=O)c3cc(C)cnc3S2(=O)=O)cc1    > 100 µM
11. C/C=C(\C)CC/C=C/CO[Si](C)(C)C(C)(C)C    > 100 µM
12. COc1ccc(OC)c(C(=O)c2oc3ccc(Br)cc3c2N)c1    14.2 µM
13. CCOC(=O)c1c(C)nc2c(c1N)/C(=C/c1ccc(OC)cc1)C(=O)N2Cc1ccc(F)cc1    0.543 µM
14. O=[N+]([O-])c1cccc2nc3ccccc3c(NCCC[N+]3([O-])CCOCC3)c12    6.42 µM
15. Cc1ccc(NC(=O)c2cccc(OP(=O)(O)Nc3ccc(C)cc3)c2)cc1    > 100 µM
16. C=C1CCC23CC(CC[C@@H]2[C@@]12C[C@@H](c1ccoc1)OC2=O)OC3=O (some centres undefined)    > 100 µM
17. COc1ccc(/C(Cl)=C(\C=O)c2ccc([N+](=O)[O-])cc2)cc1    > 70.3 µM
18. O=C1NN(C2=NNC3(C(=O)N2)c2ccccc2-c2ccccc23)C(c2ccccc2)=N/C1=C/c1ccc(O)cc1    > 150 µg/mL
19. O=C(/C=C/c1c(O)ccc2ccccc12)c1ccccc1    > 100 µM
20. N#Cc1c(Cl)c2cc([N+](=O)[O-])ccc2n2c1nc1ccccc12    2.3 µM
21. O=c1[nH]nc(Cc2ccccc2)[nH]1    > 100 µM
22. O=C1O/C(=C(/Br)c2ccc(Cl)c(Cl)c2)c2ccccc21    > 10 µM
23. CCOc1ccc2c(c1)[n+]([O-])c(-c1nc3ccccc3s1)c(N)[n+]2[O-]    > 100 µM
24. CCc1ccc(Nc2ccc([N+](=O)[O-])cc2[N+](=O)[O-])cc1    > 100 µM
25. CN(C)/C=N/S(=O)(=O)c1nn2c(C=O)c(-c3ccc(Cl)cc3)nc2s1    5.63 µM
26. CC(=O)OCCOCn1cnc2c(Cl)nc(Cl)nc21    14.5 µM
27. Cc1nc2ccccc2n1C(=O)c1c(F)c(F)c(F)c(F)c1F    33.9 µM
28. O=c1[nH]c(Nc2nc3ccccc3[nH]2)nc2c1CCC2    > 100 µM
29. CC(OC(C)(C)C)C(NC(=O)C(CCCCNC(=O)OC(C)(C)C)NC(=O)C(Cc1c[nH]c2ccccc12)NC(=O)C(Cc1ccccc1)NC(=O)OCc1ccccc1)C(=O)NC(Cc1ccccc1)C(=O)O (centres undefined) (Cbz-FWK(Boc)T(tBu)F-OH; configuration not given here)    > 100 µM
30. COc1cc2c3c(n(CCCCOC(=O)C(Cl)(Cl)Cl)c(=O)c2cc1OC)-c1cc2c(cc1C3=O)OCO2    > 100 µM
31. CC1=N/C(=C\c2cccc([N+](=O)[O-])c2)C(=O)O1    > 100 µM
32. O=C1OC(c2ccco2)=N/C1=C\c1cccc([N+](=O)[O-])c1    > 100 µM
33. O=C(O)Cc1cccc2c1OC(c1ccccc1)C(Cl)(C(=O)c1ccccc1)C2=O (centres undefined)    28.8 µM
34. N#Cc1cccc(NC(=O)c2cc(-c3ccc(F)cc3F)ccc2O)c1    11.4 µM
35. c1cc[c]([Pb]([c]2ccccc2)[c]2ccccc2)cc1    28.4 µM
36. Cn1c2ccccc2c2c3[nH]c(=O)[nH]c(=O)c3c3c4ccccc4n(C)c3c21    > 100 µM
37. O=S1(=O)N(CCNc2nccc(-c3c(-c4cccc(O)c4)nc4sccn34)n2)CCN1Cc1ccccc1    20.9 µM
38. Cc1nc2ccccc2c(=O)n1-c1ccccc1F    > 100 µM
39. COc1cc2c3c(n(CCNCCCNCCn4c5c(c6cc(OC)c(OC)cc6c4=O)C(=O)c4ccccc4-5)c(=O)c2cc1OC)-c1ccccc1C3=O    > 100 µM
